Data credit: the supplement of paper PMC5407854

- Test system: ppGalNAc-T2 sensor
- Test method notes: T2 sensor activation Q score (MG/GFP ratio z-score vs DMSO controls) (SD units); higher = more sensor activation (inhibition of ppGalNAc-T2 glycosylation)
- Run conditions: HEK293 sensor cells; 10 µM; 6 h
In all, about 1,700 compounds were measured (“T2 sensor activation Q score (MG/GFP ratio z-score vs DMSO controls)”: median about 0.3, highest 2% from about 1.9 on). Only a selection was taken, and the highest values are over-represented in it overall.
Output TRUE for T2 sensor activation Q score not less than 0.3; output FALSE otherwise.

INSERT INTO results (compound, assigned_category) VALUES
  ('c1cc(C2N3CCCN2CC3)ccn1 (stereo not given)', 'FALSE'),
  ('C=CCN1CCC23c4c5ccc(O)c4OC2C(=O)CCC3(O)C1C5 (stereo not given)', 'TRUE'),
  ('O=C1C[C@@H]2OCC=C3C[N+]4([O-])CC[C@]56c7ccccc7N1[C@H]5[C@H]2[C@H]3C[C@@H]64 (stereo not given in full)', 'TRUE'),
  ('O=C1/C(=C\c2ccccc2)C2OCC=C3CN4CCC56c7ccccc7N1C5C2C3CC46 (stereo not given)', 'FALSE'),
  ('Cc1ccccc1-n1c(C=Cc2ccccn2)nc2ccccc2c1=O', 'FALSE'),
  ('CC(C)CC(NC=O)C(=O)O.COc1cc2c(cc1OC)C13CCN4CC5=CCOC6CC(=O)N2C1C6C5CC43 (stereo not given)', 'TRUE'),
  ('CCC(C)c1cnc(CC(C)C)c(=O)n1O (stereo not given)', 'FALSE'),
  ('CN1CCN(c2nc(N)c(Br)c(Cl)n2)CC1', 'TRUE'),
  ('CC12CCC3c4ccc(OC(=O)N(CCCl)CCCl)cc4CCC3C1CCC2O (stereo not given)', 'FALSE');
